These data points were gathered from patent US20180030137A1.

- target.desc: T1, Human PD-1 (Swiss-Prot entry Q15116), full length, on cells (human, UniProt Q15116 21-288)
- T1 construct: Full length open reading frame of hPD-1 stably expressed on CHO-K1 cells; also endogenous PD-1 on CD3/CD28-stimulated human CD3+ T cells and PD-1 on transfected Jurkat cells; also called hPD-1; hPDCD1
- test.protocol: CELISA on CHO-K1.hPDCD1 cells; blocking of biotinylated hPD-L1 Fc
readout.name: pIC50
Reminder that pIC50 means the negative base-10 logarithm of the concentration expressed in mol/L.

query: Item under review: hPD1.29H5_I28D_Y32D_L4 (antibody, V domains shown, IgG4 S241P kappa format of the parent) VH: EVQLVQSGAEVKKPGASVKVSCKASGYDFTTDYIHWVKQAPGKGLEWIGWIFPGDVSTQYNEKFQDKATITVDKSASTAYMQLSSLRSEDTAVYYCTREAYDYAVYWGQGTLVTVSS VL: DIQMTQAPSSLSASVGDRVTITCKASQNVDTNVAWFQQKPGKAPKSLIFSASYRYSGVPSRFSGSGSGTDFTLTISSLQPEDFATYYCQQYNNYPFTFGGGTKLEIK . Reported pIC50?
result: 8.89

query: Give its pIC50 value. Item: hPD1.29H5_I28D_L4 (antibody, V domains shown, Mutant of hPD1.29H5L4 (human IgG4 S241P kappa format of the parent)) VH: EVQLVQSGAEVKKPGASVKVSCKASGYDFTTYYIHWVKQAPGKGLEWIGWIFPGDVSTQYNEKFQDKATITVDKSASTAYMQLSSLRSEDTAVYYCTREAYDYAVYWGQGTLVTVSS VL: DIQMTQAPSSLSASVGDRVTITCKASQNVDTNVAWFQQKPGKAPKSLIFSASYRYSGVPSRFSGSGSGTDFTLTISSLQPEDFATYYCQQYNNYPFTFGGGTKLEIK
result: 8.80

query: Fill blank: measured pIC50 of the binder hPD1.29H5_A9P_K12V_L4 (antibody, V domains shown, Mutant of hPD1.29H5L4 (human IgG4 S241P kappa format of the parent)) VH: EVQLVQSGPEVVKPGASVKVSCKASGYIFTTYYIHWVKQAPGKGLEWIGWIFPGDVSTQYNEKFQDKATITVDKSASTAYMQLSSLRSEDTAVYYCTREAYDYAVYWGQGTLVTVSS VL: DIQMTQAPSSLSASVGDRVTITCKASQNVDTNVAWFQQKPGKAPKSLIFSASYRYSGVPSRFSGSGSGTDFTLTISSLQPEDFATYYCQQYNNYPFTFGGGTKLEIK is ____.
result: 8.89
